We begin with a simple list: items and their reported anti-inflammatory properties (I), potency ratio versus natural reference product.
# Test system: carrageenin-oedema
# experiment: Anti-inflammatory activity, carrageenin-oedema method
# Type: in vivo
# condition_label: rats, oral 3 to 30 mg/Kg in carboxymethylcellulose; natural product = 1.0
endpoint: anti-inflammatory properties (I), potency ratio versus natural reference product

[
  {
    "compound": "CC(=O)Oc1ccccc1C(=O)OCCOCCO[N+](=O)[O-]",
    "result": 1.2
  },
  {
    "compound": "CC(C(=O)O)c1ccc(-c2ccccc2)c(F)c1 (stereo not shown) [FLURBIPROFEN, reference compound]",
    "result": 1.0
  },
  {
    "compound": "CC(C)Cc1ccc(C(C)C(=O)OCCOCCO[N+](=O)[O-])cc1 (stereo not shown)",
    "result": 1.0
  },
  {
    "compound": "O=C(c1ccccc1)c1ccc2n1CCC2C(=O)O (stereo not shown) [KETOROLAC, reference compound]",
    "result": 1.0
  }
]
